From: patent US20160009693A1

- Test system: Setaria faberi (SETFA)
- EXPERIMENT: Herbicidal glasshouse test, post-emergence, SETFA
- Format: in vivo
- PROTOCOL CONDITIONS: applied at 1000 g/h, evaluated after 13 days
Measured POST Application SETFA, percentage damage (five point scale) of individual entries

Consider the following illustrative entries.
I'd like to know its POST Application SETFA, percentage damage (five point scale). The compound in question is C=CCn1nc(C(=O)Nc2nnnn2C)c(=O)n(Cc2cccc(F)c2)c1=O
5 (5=80-100%)

Would you mind telling me what POST Application SETFA, percentage damage (five point scale) value was observed for Cn1nnnc1NC(=O)c1nn(C)c(=O)n(Cc2ccc(SC(F)(F)F)cc2)c1=O ?
5 (5=80-100%)

Name the reported POST Application SETFA, percentage damage (five point scale) value associated with the compound Cn1ncnc1NC(=O)c1nn(C)c(=O)n(-c2ccccc2)c1=O
5 (5=80-100%)

Using the record for Cn1nnnc1NC(=O)c1nn(C)c(=O)n(-c2ccc(Cl)c(Cl)c2)c1=O , report its POST Application SETFA, percentage damage (five point scale).
5 (5=80-100%)

Form field: reported POST Application SETFA, percentage damage (five point scale) of Cn1nnnc1NC(=O)c1nn(C)c(=O)n(CC2CCCCC2)c1=O
5 (5=80-100%)

If you can, please state the reported POST Application SETFA, percentage damage (five point scale) value of CC(C)CCn1c(=O)c(C(=O)Nc2nnnn2C)nn(C)c1=O .
5 (5=80-100%)

Given the compound Cn1nnnc1NC(=O)c1nn(C)c(=O)n(-c2cc(C(F)(F)F)cc(C(F)(F)F)c2)c1=O , what is its reported POST Application SETFA, percentage damage (five point scale)?
4 (4=60-79%)

Please report the recorded POST Application SETFA, percentage damage (five point scale) for Cn1nnnc1NC(=O)c1nn(C)c(=O)n(-c2ccc(F)c(Cl)c2)c1=O .
5 (5=80-100%)

Name the recorded POST Application SETFA, percentage damage (five point scale) for Cn1nnnc1NC(=O)c1nn(C)c(=O)n(-c2ccc([N+](=O)[O-])cc2)c1=O .
5 (5=80-100%)

Return reported POST Application SETFA, percentage damage (five point scale); argument: Cc1cccc(Cn2c(=O)c(C(=O)Nc3nnnn3C)nn(C)c2=O)c1
1 (1=0-19%)

***
Requested read-out: POST Application SETFA, percentage damage (five point scale). Entry: Cn1nnnc1NC(=O)c1nn(C)c(=O)n(Cc2ccccc2F)c1=O
5 (5=80-100%)

Given the entry Cn1ncnc1OC(=O)c1cn(C)c(=O)n(-c2cccc(F)c2)c1=O , report its measured POST Application SETFA, percentage damage (five point scale).
1 (1=0-19%)

Recorded POST Application SETFA, percentage damage (five point scale) of CSc1cccc(-n2c(=O)c(C(=O)Nc3nnnn3C)nn(C)c2=O)c1 , please.
4 (4=60-79%)

So what's the measured POST Application SETFA, percentage damage (five point scale) for this one? Cc1cccc(-n2c(=O)c(C(=O)Nc3nnnn3C)nn(C)c2=O)c1 [Compound 1.025]
5 (5=80-100%)

Could you tell me which POST Application SETFA, percentage damage (five point scale) is on file for Cn1nnnc1NC(=O)c1nn(C)c(=O)n(Cc2ccc(C#N)cc2)c1=O ?
1 (1=0-19%)

// query POST Application SETFA, percentage damage (five point scale) value for entry C=CCn1nc(C(=O)Nc2nnnn2C)c(=O)n(-c2ccc(F)cc2)c1=O
5 (5=80-100%)

I am curious: what POST Application SETFA, percentage damage (five point scale) value has been reported for Cc1ccc(Cn2c(=O)c(C(=O)Nc3nnnn3C)nn(C)c2=O)cc1 ?
2 (2=20-39%)
